subject of test: human ether-à-go-go-related gene (hERG) potassium channel (human)
Sequence (Q12809 whole entry, looked up): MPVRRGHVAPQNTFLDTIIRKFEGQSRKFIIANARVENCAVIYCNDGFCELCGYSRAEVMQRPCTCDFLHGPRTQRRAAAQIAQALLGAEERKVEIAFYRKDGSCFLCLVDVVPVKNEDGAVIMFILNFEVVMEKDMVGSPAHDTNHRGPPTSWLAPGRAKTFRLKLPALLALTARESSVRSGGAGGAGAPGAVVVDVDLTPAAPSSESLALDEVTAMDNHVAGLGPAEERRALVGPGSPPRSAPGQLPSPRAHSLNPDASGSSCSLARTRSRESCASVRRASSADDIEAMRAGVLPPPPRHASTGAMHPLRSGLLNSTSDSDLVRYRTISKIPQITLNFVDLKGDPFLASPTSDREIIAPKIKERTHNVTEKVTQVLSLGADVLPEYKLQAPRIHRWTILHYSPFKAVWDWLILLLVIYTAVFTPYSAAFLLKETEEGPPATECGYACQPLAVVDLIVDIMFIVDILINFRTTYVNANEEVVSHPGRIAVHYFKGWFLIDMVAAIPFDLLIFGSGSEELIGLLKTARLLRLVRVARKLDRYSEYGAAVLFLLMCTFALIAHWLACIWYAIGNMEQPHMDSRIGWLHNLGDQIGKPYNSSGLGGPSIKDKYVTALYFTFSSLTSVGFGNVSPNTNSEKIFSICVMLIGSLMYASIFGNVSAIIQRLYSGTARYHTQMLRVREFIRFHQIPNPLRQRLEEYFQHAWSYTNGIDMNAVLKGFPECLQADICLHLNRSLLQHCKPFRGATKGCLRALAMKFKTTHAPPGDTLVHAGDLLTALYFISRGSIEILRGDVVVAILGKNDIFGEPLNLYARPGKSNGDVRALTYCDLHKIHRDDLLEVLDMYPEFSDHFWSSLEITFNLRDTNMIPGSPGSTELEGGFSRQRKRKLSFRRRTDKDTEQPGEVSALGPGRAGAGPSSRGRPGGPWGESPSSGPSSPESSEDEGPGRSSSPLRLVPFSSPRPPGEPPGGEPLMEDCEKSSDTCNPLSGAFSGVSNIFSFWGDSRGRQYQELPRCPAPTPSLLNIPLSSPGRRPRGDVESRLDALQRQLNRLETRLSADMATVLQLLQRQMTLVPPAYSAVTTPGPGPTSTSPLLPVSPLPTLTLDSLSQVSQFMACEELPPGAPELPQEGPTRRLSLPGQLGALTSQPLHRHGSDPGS
assay comment: primary screen, population patch clamp on CHO cells stably expressing hERG; higher = less effect of the substance;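 also: peak tail current of the secondary pulse compared with the same well before compound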
About 14,000 (4.5%) of roughly 310,000 compounds showed an effect of 50% or more. The effect is printed as a negative number. The sample holds strong results, similar compounds and a random draw of the others, so the mix is not that of the screen.
Each entry gets condition not met if its hERG current change (%, negative = inhibition) at 10uM stays under -30%, and condition met if its hERG current change (%, negative = inhibition) at 10uM is -30% or above.

Before answering, review these 3 worked examples.
CCOC(=O)N1CCN(S(=O)(=O)c2ccc(C(=O)N(CCN(C)C)c3nc4ccc(CC)cc4s3)cc2)CC1.Cl :: condition not met
CC(OC(=O)c1ccc(NS(=O)(=O)c2cccs2)cc1)C(=O)N(C)C1CCCCC1 (centres unmarked) :: condition met
CCCCC(=O)OCC(=O)Nc1ccc(OC(F)F)cc1 :: condition met

Prompt: Given the entry O=C(CSc1nnc(-c2cccnc2)n1Cc1ccco1)c1ccc(Cl)c(Cl)c1 , answer whether its hERG current change (%, negative = inhibition) at 10uM meets or surpasses -30%.
Completion: condition not met

Prompt: Given the entry COc1ccc(C(=O)CSc2nnc(-c3cccnc3)n2Cc2ccco2)cc1 , answer whether its hERG current change (%, negative = inhibition) at 10uM meets or surpasses -30%.
Completion: condition not met

Prompt: Given the entry CCOC(=O)N1CCN(S(=O)(=O)c2ccc(C(=O)N(CCCN(C)C)c3nc4cc(OC)ccc4s3)cc2)CC1.Cl , answer whether its hERG current change (%, negative = inhibition) at 10uM meets or surpasses -30%.
Completion: condition not met

Prompt: Given the entry CCOC(=O)N1CCN(S(=O)(=O)c2ccc(C(=O)N(CCN(C)C)c3nc4c(C)cccc4s3)cc2)CC1.Cl , answer whether its hERG current change (%, negative = inhibition) at 10uM meets or surpasses -30%.
Completion: condition not met

Prompt: Given the entry CN(C)CCCN(C(=O)c1ccc(S(=O)(=O)N2CCc3ccccc32)cc1)c1nc2ccc(Cl)cc2s1.Cl , answer whether its hERG current change (%, negative = inhibition) at 10uM meets or surpasses -30%.
Completion: condition met

Prompt: Given the entry O=C(/C=C/c1ccco1)Nc1ccc(CN2CCOCC2)cc1 , answer whether its hERG current change (%, negative = inhibition) at 10uM meets or surpasses -30%.
Completion: condition not met

Prompt: Given the entry CCOC(=O)N1CCN(S(=O)(=O)c2ccc(C(=O)N(CCCN(C)C)c3nc4ccc(OC)cc4s3)cc2)CC1.Cl , answer whether its hERG current change (%, negative = inhibition) at 10uM meets or surpasses -30%.
Completion: condition not met

Prompt: Given the entry COc1ccc2sc(N(CCCN(C)C)C(=O)c3ccc(S(=O)(=O)N4CCc5ccccc5C4)cc3)nc2c1.Cl , answer whether its hERG current change (%, negative = inhibition) at 10uM meets or surpasses -30%.
Completion: condition met
